- experiment-summary: Selectivity index, ratio of IC50 for antiproliferative activity in HEK293T cells to IC50 for antiproliferative activity in human MCF7 cells
- Assay type: toxicity, cell-based
- test-settings: HEK293T cells versus MCF7 cells, read-out: Ratio IC50
readout-label: selectivity ratio

Below: 5 compounds and their reported selectivity ratio.
compound: O=C1Nc2ccccc2C12N(c1ccccc1)N=C(c1ccccc1)N2c1cccc(Cl)c1 (stereo not drawn)
readout-label: selectivity ratio
experimental-result: < 2
//
compound: O=C1Nc2ccc(Br)cc2C12N(c1cccc(Cl)c1)N=C(c1ccccc1)N2c1cccc(Cl)c1 (stereo not drawn)
readout-label: selectivity ratio
experimental-result: < 2
//
compound: O=C1Nc2c(Cl)cccc2C12N(c1ccccc1)N=C(c1ccccc1)N2c1ccccc1 (stereo not drawn)
readout-label: selectivity ratio
experimental-result: 2.5 to 9.3
//
compound: O=C1Nc2ccc(Br)cc2C12N(c1ccccc1)N=C(c1ccccc1)N2c1ccccc1 (stereo not drawn)
readout-label: selectivity ratio
experimental-result: 2.4 to 2.5
//
compound: O=C1Nc2ccc(Br)cc2[C@]12[C@@H](c1ccccc1)C(c1ccccc1)=NN2c1ccccc1
readout-label: selectivity ratio
experimental-result: > 13.7

Ask: Fill in selectivity ratio for record O=C1Nc2ccccc2C12N(c1ccccc1)N=C(c1ccccc1)N2c1ccc(Cl)cc1 (stereo not drawn)
Result: 2.5 to 4.1

Ask: Fill in selectivity ratio for record O=C1Nc2ccc(Br)cc2C12N(c1ccccc1)N=C(c1ccccc1)N2c1ccc(F)c(Cl)c1 (stereo not drawn)
Result: < 2

Ask: Fill in selectivity ratio for record COc1ccc(C2=NN(c3ccccc3)C3(C(=O)Nc4ccc(Br)cc43)N2c2cccc(Cl)c2)cc1 (stereo not drawn)
Result: < 2

Ask: Fill in selectivity ratio for record O=C1Nc2ccc(Br)cc2C12N(c1ccccc1)N=C(c1ccccc1)N2c1cccc(Cl)c1 (stereo not drawn)
Result: < 2

Ask: Fill in selectivity ratio for record O=C1Nc2ccc(Br)cc2C12N(c1ccccc1Cl)N=C(c1ccccc1)N2c1cccc(Cl)c1 (stereo not drawn)
Result: < 2

* * *

- Test system: MCF7
- experiment-summary: Antiproliferative activity in human MCF7 cells incubated for 72 hrs by MTT assay
- Type: functional, cell-based
- test-settings: MCF7, 72 h
readout-label: IC50
Record the result as a number with its unit.

Below: 3 compounds and their reported IC50.
compound: O=C1Nc2ccc(Cl)cc2[C@]12[C@@H](c1ccccc1)C(c1ccccc1)=NN2c1ccccc1
target: MCF7
IC50: 37.7 µM
//
compound: O=C1Nc2ccccc2C12N(c1ccccc1)N=C(c1ccc(Cl)cc1)N2c1ccc(Cl)cc1 (stereo not drawn)
target: MCF7
IC50: 10.9 µM
//
compound: O=C1Nc2ccc(Br)cc2C12N(c1ccccc1)N=C(c1ccccc1)N2c1ccc(F)c(Cl)c1 (stereo not drawn)
target: MCF7
IC50: 11 µM

Ask: Fill in IC50 for record O=C1Nc2ccccc2C12N(c1ccccc1)N=C(c1ccccc1)N2c1ccc(F)c(Cl)c1 (stereo not drawn)
Result: 19.5 µM

Ask: Fill in IC50 for record O=C1Nc2ccc(Br)cc2[C@]12[C@@H](c1cccc(Cl)c1)C(c1ccccc1)=NN2c1ccccc1
Result: 10 µM

Ask: Fill in IC50 for record O=C1Nc2ccc(Br)cc2[C@]12[C@@H](c1ccccc1)C(c1ccccc1)=NN2c1ccccc1
Result: 7.3 µM

Ask: Fill in IC50 for record O=C1Nc2ccccc2C12N(c1cccc(Cl)c1)N=C(c1ccccc1)N2c1ccc(Cl)cc1 (stereo not drawn)
Result: 14.2 µM

Ask: Fill in IC50 for record O=C1Nc2ccccc2C12N(c1ccccc1Cl)N=C(c1ccccc1)N2c1ccc(Cl)cc1 (stereo not drawn)
Result: 28.4 µM

Ask: Fill in IC50 for record O=C1Nc2ccc(Br)cc2C12N(c1ccccc1)N=C(c1ccccc1)N2c1ccc(Cl)cc1 (stereo not drawn)
Result: 16.8 µM

Ask: Fill in IC50 for record O=C1Nc2c(Cl)cccc2[C@]12[C@@H](c1ccccc1)C(c1ccccc1)=NN2c1ccccc1
Result: 22.4 µM

Ask: Fill in IC50 for record O=C1Nc2ccccc2C12N(c1ccc(Cl)cc1)N=C(c1ccccc1)N2c1ccc(Cl)cc1 (stereo not drawn)
Result: 10.1 µM

Ask: Fill in IC50 for record O=C1Nc2c(Br)cccc2C12N(c1ccccc1)N=C(c1ccccc1)N2c1ccccc1 (stereo not drawn)
Result: 21.8 µM

Ask: Fill in IC50 for record O=C1Nc2ccc(Br)cc2C12N(c1cccc(Cl)c1)N=C(c1ccccc1)N2c1cccc(Cl)c1 (stereo not drawn)
Result: 9.8 µM

Ask: Fill in IC50 for record O=C1Nc2ccc(Br)cc2C12N(c1ccccc1)N=C(c1cccc(Cl)c1)N2c1cccc(Cl)c1 (stereo not drawn)
Result: 8 µM

Ask: Fill in IC50 for record O=C1Nc2ccccc2C12N(c1ccccc1)N=C(c1ccccc1)N2c1cccc(Cl)c1 (stereo not drawn)
Result: 13.7 µM

Ask: Fill in IC50 for record O=C1Nc2ccc(Cl)cc2C12N(c1ccccc1)N=C(c1ccccc1)N2c1ccccc1 (stereo not drawn)
Result: 19.1 µM

Ask: Fill in IC50 for record O=C1Nc2ccccc2C12N(c1ccccc1)N=C(c1cccc(Cl)c1)N2c1ccc(Cl)cc1 (stereo not drawn)
Result: 13.1 µM

Ask: Fill in IC50 for record O=C1Nc2ccc(Br)cc2C12N(c1ccccc1Cl)N=C(c1ccccc1)N2c1cccc(Cl)c1 (stereo not drawn)
Result: 10.2 µM

* * *

pIC50 values, listed per item
- System: HCT-116
- experiment-summary: Antiproliferative activity in p53 (+/+) human HCT116 cells incubated for 72 hrs by MTS assay
- Format: functional, cell-based
- test-settings: HCT-116, 72 h
API: returns pIC50 as number; meaning -log10 of concentration in mol/L.

Below: 10 compounds and their reported pIC50.
compound: O=C1Nc2ccc(Cl)cc2C12N(c1ccccc1)N=C(c1ccccc1)N2c1cccc(Cl)c1 (configuration not stated)
readout-label: pIC50
experimental-result: 4.79

compound: O=C1Nc2ccccc2C12N(c1cccc(Cl)c1)N=C(c1ccccc1)N2c1ccc(Cl)cc1 (configuration not stated)
readout-label: pIC50
experimental-result: 4.70

compound: O=C1Nc2ccc(Cl)cc2C12N(c1ccccc1)N=C(c1ccccc1)N2c1ccccc1 (configuration not stated)
readout-label: pIC50
experimental-result: 4.67

compound: O=C1Nc2ccccc2C12N(c1ccccc1)N=C(c1ccccc1)N2c1ccc(Cl)cc1 (configuration not stated)
readout-label: pIC50
experimental-result: 4.82

compound: O=C1Nc2ccccc2C12N(c1ccccc1)N=C(c1ccc(Cl)cc1)N2c1ccc(Cl)cc1 (configuration not stated)
readout-label: pIC50
experimental-result: 4.77

compound: O=C1Nc2ccc(Br)cc2C12N(c1ccccc1)N=C(c1ccccc1)N2c1ccccc1 (configuration not stated)
readout-label: pIC50
experimental-result: 4.65

compound: O=C1Nc2ccc(Br)cc2C12N(c1ccccc1)N=C(c1ccccc1)N2c1ccc(F)c(Cl)c1 (configuration not stated)
readout-label: pIC50
experimental-result: 4.87

compound: O=C1Nc2ccccc2C12N(c1ccccc1)N=C(c1cccc(Cl)c1)N2c1ccc(Cl)cc1 (configuration not stated)
readout-label: pIC50
experimental-result: 4.76

compound: O=C1Nc2ccc(Br)cc2C12N(c1cccc(Cl)c1)N=C(c1ccccc1)N2c1cccc(Cl)c1 (configuration not stated)
readout-label: pIC50
experimental-result: 4.92

compound: O=C1Nc2c(Cl)cccc2C12N(c1ccccc1)N=C(c1ccccc1)N2c1ccccc1 (configuration not stated)
readout-label: pIC50
experimental-result: 4.63

Ask: Fill in pIC50 for record O=C1Nc2ccc(Br)cc2C12N(c1ccccc1Cl)N=C(c1ccccc1)N2c1cccc(Cl)c1 (configuration not stated)
Result: 4.67

Ask: Fill in pIC50 for record O=C1Nc2ccc(Br)cc2C12N(c1cccc(Cl)c1)N=C(c1cccc(Cl)c1)N2c1cccc(Cl)c1 (configuration not stated)
Result: 4.99

Ask: Fill in pIC50 for record O=C1Nc2ccccc2C12N(c1ccc(Cl)cc1)N=C(c1ccccc1)N2c1ccc(Cl)cc1 (configuration not stated)
Result: 4.73

Ask: Fill in pIC50 for record O=C1Nc2ccc(Br)cc2C12N(c1ccccc1)N=C(c1ccc(Cl)cc1)N2c1cccc(Cl)c1 (configuration not stated)
Result: 4.97

Ask: Fill in pIC50 for record O=C1Nc2ccc(Br)cc2C12N(c1ccc(Cl)cc1)N=C(c1ccccc1)N2c1cccc(Cl)c1 (configuration not stated)
Result: 4.82

Ask: Fill in pIC50 for record O=C1Nc2ccc(Br)cc2C12N(c1ccccc1)N=C(c1ccccc1)N2c1ccc(Cl)cc1 (configuration not stated)
Result: 4.79

Ask: Fill in pIC50 for record COc1ccc(C2=NN(c3ccccc3)C3(C(=O)Nc4ccc(Br)cc43)N2c2cccc(Cl)c2)cc1 (configuration not stated)
Result: 4.65

Ask: Fill in pIC50 for record O=C1Nc2ccc(Br)cc2C12N(c1ccccc1Cl)N=C(c1cccc(Cl)c1)N2c1cccc(Cl)c1 (configuration not stated)
Result: 4.86

* * *

- experiment-summary: Selectivity index, ratio of IC50 for antiproliferative activity in HEK293T cells to IC50 for antiproliferative activity in human p53 (-/-) human HCT116 cells
- Assay type: toxicity, cell-based
- test-settings: HEK293T cells versus p53 (-/-) HCT116 cells, read-out: Ratio IC50
selectivity ratio values, listed per item

Below: 2 compounds and their reported selectivity ratio.
compound: O=C1Nc2ccc(Cl)cc2C12N(c1ccccc1)N=C(c1ccccc1)N2c1cccc(Cl)c1 (configuration not stated)
experimental-result: 2.5 to 5.6

compound: O=C1Nc2ccccc2C12N(c1ccccc1)N=C(c1ccc(Cl)cc1)N2c1ccc(Cl)cc1 (configuration not stated)
experimental-result: < 2

Ask: Fill in selectivity ratio for record O=C1Nc2ccccc2C12N(c1ccccc1)N=C(c1ccccc1)N2c1cccc(Cl)c1 (configuration not stated)
Result: < 2

Ask: Fill in selectivity ratio for record O=C1Nc2ccc(Br)cc2C12N(c1cccc(Cl)c1)N=C(c1ccccc1)N2c1cccc(Cl)c1 (configuration not stated)
Result: < 2
